Entry source: paper PMC3206016

Below, each entry is listed alongside its reported Kd.
# Tested Target: T1, MAGI1-3/6 (MBP fusion of the third of the six PDZ domains of MAGI1) (mouse, UniProt Q6RHR9-1 613-752)
# T1 construct: source: E. coli BL21 DE3, purified (amylose column, Superdex 75 gel filtration)
# T1 sequence (Q6RHR9 613-752): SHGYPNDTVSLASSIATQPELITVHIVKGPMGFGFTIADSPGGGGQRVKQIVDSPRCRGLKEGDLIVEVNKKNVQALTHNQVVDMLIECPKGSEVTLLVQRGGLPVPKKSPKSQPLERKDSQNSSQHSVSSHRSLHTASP
# Method Summary: SPR
# Particulars: both partners purified
Ends that are not written are not given here. * marks the point of attachment. Biotin = O=C1N[C@H]2[C@H](CS[C@H]2CCCCC(=O)*)N1
Write the value in µM as a bare number.

Record excerpt, results attached:
*Q* Look up Kd: Biotin-SGGKRKETLV (also called NET1 long; source: synthetic peptide (JPT Peptide Technologies)) [NET1_10 (long peptide of Neuroepithelial cell-transforming gene 1 protein: the last ten residues)]
*A* 37

*Q* Look up Kd: Biotin-QDEKVKESYV (also called ABC1 long; source: synthetic peptide (JPT Peptide Technologies)) [ABC1_10 (long peptide of ATP-binding cassette sub-family A member 1: the last ten residues)]
*A* 20

Others:
*Q* Look up Kd: Biotin-GSGAGKESYV (also called ABC1 short; source: synthetic peptide (JPT Peptide Technologies))
*A* 26

*Q* Look up Kd: Biotin-GSGAGIATEV (also called DLL1 short; source: synthetic peptide (JPT Peptide Technologies)) [DLL1_05 (short peptide of Delta-like protein 1: GSGAG and the last five residues)]
*A* 246
